The reported measurements were obtained from patent US8436035B2.

# Assay target: CYP11B1 (Homo sapiens, UniProt P15538)
# Construct: Thus, the NCI-H295R cells have Cyp11 B1 (steroid 11 p-hydroxylase); host or cells: NCI-H295R
# Sequence (P15538 25-503): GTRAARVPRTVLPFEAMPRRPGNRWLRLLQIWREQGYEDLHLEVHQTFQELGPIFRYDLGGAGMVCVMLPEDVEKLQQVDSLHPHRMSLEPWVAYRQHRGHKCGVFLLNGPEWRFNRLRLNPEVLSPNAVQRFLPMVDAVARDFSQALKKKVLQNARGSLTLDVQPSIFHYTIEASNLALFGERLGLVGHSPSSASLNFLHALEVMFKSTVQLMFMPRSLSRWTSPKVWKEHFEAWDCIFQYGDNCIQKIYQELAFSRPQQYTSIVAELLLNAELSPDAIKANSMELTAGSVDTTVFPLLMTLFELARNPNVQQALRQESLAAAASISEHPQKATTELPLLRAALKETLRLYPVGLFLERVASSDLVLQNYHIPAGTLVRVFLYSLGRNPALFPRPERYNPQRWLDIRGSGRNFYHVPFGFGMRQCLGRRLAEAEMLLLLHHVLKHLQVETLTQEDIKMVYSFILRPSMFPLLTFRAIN
# Procedure text: in vitro CYP11B1 inhibition, steroid release from NCI-H295R cells
# Format: cell-based
# Condition parameters: NCI-H295R; read-out: 11B1 % I @ 100 nM
Endpoint: inhibition at 0.1 µM (%)
Use % as the unit, but write only the number.

Some entries whose results are on file:
| Compound | Assay target | inhibition at 0.1 µM / % |
| --- | --- | --- |
| CC(C)OC(=O)c1cncn1C1CCCCc2ccccc21 (stereo not drawn) [Compound 26] | CYP11B1 (Homo sapiens, UniProt P15538) | 99 |
| CC(C)OC(=O)c1cncn1C1CCCc2ccccc21 (single isomer, unassigned) [Compound 1] | CYP11B1 (Homo sapiens, UniProt P15538) | 99 |
| Cc1noc(-c2cncn2C2c3ccccc3CC2(C)C)n1 (stereo not drawn) [Compound 21] | CYP11B1 (Homo sapiens, UniProt P15538) | 98 |
| CCc1cncn1C1CC(C)(C)c2ccccc21 (stereo not drawn) [Compound 22] | CYP11B1 (Homo sapiens, UniProt P15538) | 100 |
| CC(C)OC(=O)c1cncn1C1CCOc2ccccc21 (single isomer, unassigned) [Compound 15] | CYP11B1 (Homo sapiens, UniProt P15538) | 65 |
| CCc1cncn1C1CCC(C)(C)c2ccccc21 (single isomer, unassigned) [Compound 8] | CYP11B1 (Homo sapiens, UniProt P15538) | 100 |

Task item: Which inhibition at 0.1 µM is reported for this compound? COC(=O)c1cncn1C1c2ccccc2C(NCc2ccccc2)CC1(C)C (stereo not drawn) [Compound 13]
Reply: 60

Task item: Which inhibition at 0.1 µM is reported for this compound? CC1(C)CSc2ccccc2C1n1ccnc1 (stereo not drawn) [Compound 14]
Reply: 92

Task item: Which inhibition at 0.1 µM is reported for this compound? CC(C)OC(=O)c1cncn1C1CCCc2ccc(C(=O)N3CCCC3)cc21 (single isomer, unassigned) [Compound 3]
Reply: 87

====

# Assay target: aldosterone synthase (CYP11B2) (Homo sapiens, UniProt P19099)
# Sequence (P19099 25-503): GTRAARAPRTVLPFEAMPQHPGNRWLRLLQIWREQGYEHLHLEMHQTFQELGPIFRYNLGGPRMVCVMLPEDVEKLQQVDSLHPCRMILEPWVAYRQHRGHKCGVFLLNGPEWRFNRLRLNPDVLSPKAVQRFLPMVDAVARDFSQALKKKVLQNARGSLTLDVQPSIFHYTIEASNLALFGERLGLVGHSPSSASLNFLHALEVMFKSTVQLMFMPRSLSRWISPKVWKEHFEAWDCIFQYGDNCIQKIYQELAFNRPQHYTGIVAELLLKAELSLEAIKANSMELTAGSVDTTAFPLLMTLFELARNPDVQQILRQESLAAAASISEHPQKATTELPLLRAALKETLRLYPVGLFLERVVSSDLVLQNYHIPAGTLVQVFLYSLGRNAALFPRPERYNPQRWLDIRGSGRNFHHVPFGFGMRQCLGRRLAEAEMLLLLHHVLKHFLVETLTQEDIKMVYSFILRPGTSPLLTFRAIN
# Procedure text: in vitro aldosterone synthase inhibition, aldosterone production in Ang II-stimulated NCI-H295R cells
# Condition parameters: read-out: AS IC50
# Protocol: In particular, the aldosterone synthase inhibitory activities in vitro can be determined by the following assay. Human adrenocortical carcinoma NCI-H295R cell line is obtained from American Type Culture Collection (Manassas, Va.). […] Measurement of aldosterone activity can also be performed using a 96-well plate format. […] The amount of aldosterone in each sample is calculated by comparing with a standard curve generated using known quantities of the hormone.
The reader will find reported pIC50 values listed item by item below.
Worth noting: pIC50 values are minus log10 of concentrations stated in mol/L.

Some entries whose results are on file:
| Molecule | Measured result |
| --- | --- |
| CC(C)OC(=O)c1cncn1C1CCCCc2ccccc21 (stereo not drawn) [Compound 26] | 8.30 |
| Cc1noc(-c2cncn2C2c3ccccc3CC2(C)C)n1 (stereo not drawn) [Compound 21] | 6.89 |

Task item: GET /values?readout=pIC50&system=aldosterone synthase (CYP11B2) (Homo sapiens, UniProt P19099)&item= CC1(C)Cc2ccccc2C1n1cncc1C(=O)NCc1ccccc1 (stereo not drawn) [Compound 19]
Reply: 7.77

Task item: GET /values?readout=pIC50&system=aldosterone synthase (CYP11B2) (Homo sapiens, UniProt P19099)&item= COC(=O)c1cncn1C1c2ccccc2C(=O)CC1(C)C (single isomer, unassigned) [Compound 10]
Reply: 7.57

Task item: GET /values?readout=pIC50&system=aldosterone synthase (CYP11B2) (Homo sapiens, UniProt P19099)&item= CC(C)OC(=O)c1cncn1C1CCCc2ccc(C#N)cc21 (stereo not drawn) [Compound 6]
Reply: 6.71

Task item: GET /values?readout=pIC50&system=aldosterone synthase (CYP11B2) (Homo sapiens, UniProt P19099)&item= CC1(C)C(n2cncc2CO)c2ccccc2S1(=O)=O (stereo not drawn) [Compound 24]
Reply: 6.71

Task item: GET /values?readout=pIC50&system=aldosterone synthase (CYP11B2) (Homo sapiens, UniProt P19099)&item= CCc1cncn1C1CCC(C)(C)c2ccccc21 (single isomer, unassigned) [Compound 9]
Reply: 8.22

Task item: GET /values?readout=pIC50&system=aldosterone synthase (CYP11B2) (Homo sapiens, UniProt P19099)&item= CCC(=O)Oc1cncn1C1CCCc2ccccc21 (stereo not drawn) [Compound 2]
Reply: 7.68

Task item: GET /values?readout=pIC50&system=aldosterone synthase (CYP11B2) (Homo sapiens, UniProt P19099)&item= COC(=O)c1cncn1C1c2ccccc2C(NCc2ccccc2)CC1(C)C (stereo not drawn) [Compound 13]
Reply: 6.16

====

The reader will find reported IC50 values listed item by item below.
# Assay target: aldosterone synthase (CYP11B2) (Homo sapiens, UniProt P19099)
# Procedure text: in vitro aldosterone synthase inhibition, aldosterone production in Ang II-stimulated NCI-H295R cells
# Condition parameters: read-out: AS IC50
Use nM as the unit, but write only the number.

| Molecule | Unit spec | Measured result |
| --- | --- | --- |
| CC(C)OC(=O)c1cncn1C1CCCc2ccc(C(=O)N3CCCC3)cc21 (single isomer, unassigned) | nM | 215 |
| COC(=O)c1cncn1[C@H]1c2ccccc2[C@@H](O)CC1(C)C (relative stereo) [Compound 12] | nM | 14 |
| COC(=O)c1cncn1[C@H]1c2ccccc2[C@@H](O)CC1(C)C (relative stereo) [Compound 11] | nM | 59 |

--- query ---
Task item: Which IC50 is reported for this molecule? CCc1cncn1C1CC(C)(C)c2ccccc21 (stereo not shown)
Reply: 194

====

# Assay target: aldosterone synthase (CYP11B2) (Homo sapiens, UniProt P19099)
# Sequence (P19099 25-503): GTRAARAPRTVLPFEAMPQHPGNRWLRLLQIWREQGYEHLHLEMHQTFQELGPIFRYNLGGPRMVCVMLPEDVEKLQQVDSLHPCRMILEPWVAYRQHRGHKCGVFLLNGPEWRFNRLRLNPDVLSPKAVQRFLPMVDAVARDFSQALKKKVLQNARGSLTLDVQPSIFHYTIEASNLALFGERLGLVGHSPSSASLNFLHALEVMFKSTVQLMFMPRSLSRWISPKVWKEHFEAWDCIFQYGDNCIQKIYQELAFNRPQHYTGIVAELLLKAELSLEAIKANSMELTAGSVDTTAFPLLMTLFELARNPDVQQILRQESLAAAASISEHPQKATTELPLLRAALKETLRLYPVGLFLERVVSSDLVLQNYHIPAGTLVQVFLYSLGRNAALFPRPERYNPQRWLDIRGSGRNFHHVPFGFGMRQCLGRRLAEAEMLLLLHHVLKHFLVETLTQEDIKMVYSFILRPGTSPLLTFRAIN
# Procedure text: in vitro aldosterone synthase inhibition, aldosterone production in Ang II-stimulated NCI-H295R cells
# Condition parameters: read-out: AS IC50
# Procedure: In particular, the aldosterone synthase inhibitory activities in vitro can be determined by the following assay. Human adrenocortical carcinoma NCI-H295R cell line is obtained from American Type Culture Collection (Manassas, Va.). […] Measurement of aldosterone activity can also be performed using a 96-well plate format. […] The amount of aldosterone in each sample is calculated by comparing with a standard curve generated using known quantities of the hormone.
Binary call on IC50 with cut-off 80 nM: strictly below means yes (1), and equality or higher means no (0).

| Compound | Category label |
| --- | --- |
| CC(C)OC(=O)c1cncn1C1CCOc2ccccc21 (single isomer, unassigned) [Compound 15] | no (0) |
| CC1(C)CSc2ccccc2C1n1ccnc1 (centres unmarked) | no (0) |
| CC(C)OC(=O)c1cncn1C1CCOc2ccccc21 (single isomer, unassigned) [Compound 16] | no (0) |

Task item: Lab note: confirm whether the reported IC50 for this compound is below 80 nM, equality not counting. compound: c1ccc(COc2cncn2C2CSCc3ccccc32)cc1 (centres unmarked)
Reply: no (0)

Task item: Lab note: confirm whether the reported IC50 for this compound is below 80 nM, equality not counting. compound: COC(=O)c1cncn1C1c2ccccc2OC1(C)C (centres unmarked)
Reply: yes (1)

Task item: Lab note: confirm whether the reported IC50 for this compound is below 80 nM, equality not counting. compound: CC(C)OC(=O)c1cncn1C1CCCc2ccccc21 (single isomer, unassigned)
Reply: yes (1)
